molecular target: Estrogen receptor (Homo sapiens); experiment: qHTS assay for small molecule antagonists of estrogen receptor alpha signaling (AID 588513); conditions: ER-alpha-UAS-bla HEK293, beta-lactamase ratio, antagonist mode; series mostly up to 76.9 µM; also: potency is read from the fitted curve at half-maximal effect
The source made the active and inactive calls. Calls follow the shape of the dose curve; as a rule, active = well fitted curve in the direction sought with a large enough effect in the signal ratio, with a control signal flat (not every such curve was filed as active); inconclusive = small, poorly fitted or top-dose-only effect, or effect the other way, or a change in a side signal; inactive = no such curve, though single readings can be large or run the other way; the % refers to the signal ratio.
readout_label: Potency

// below: answered compounds
compound=COc1ccc(C(=O)c2ccccc2)c(O)c1 readout_label=Potency test_value=inactive
compound="CCCCC(CC)COC(=O)c1ccc(N(C)C)cc1 (centres undefined)" readout_label=Potency test_value=inactive
compound=CCCCCCCC/C=C\CCCCCCCCN readout_label=Potency test_value=inactive
compound=COc1cc([C@H]2Oc3cc([C@H]4Oc5cc(O)cc(O)c5C(=O)[C@@H]4O)ccc3O[C@@H]2CO)ccc1O readout_label=Potency test_value=inactive
compound=O=C(O)c1ccc(S(=O)(=O)N(Cl)Cl)cc1 readout_label=Potency test_value=inactive
compound=COc1ccc(C(Cl)=C(c2ccc(OC)cc2)c2ccc(OC)cc2)cc1 readout_label=Potency test_value="1580 nM [inconclusive] (active)"
compound=CCOc1ccc(NC(C)=O)cc1 readout_label=Potency test_value=inactive
compound=CCCCCCCCCCCCCC(=O)OC(C)C readout_label=Potency test_value=inactive

Field: next compound
Input: Lab note: need Potency with Estrogen receptor (Homo sapiens) for entry `CCOc1ccccc1C(N)=O` , please look it up.
Output: inactive

---

test system: ECU; assay: qHTS profiling for inhibitors of Plasmodium falciparum proliferation (AID 504749); also: nearly all actives have a fitted effect of over 60% in size; conditions: P. falciparum in erythrocytes, SYBR Green DNA, 72 h; series mostly up to 28.7 µM
Results filed as inconclusive are left out. Activity calls are given as the source filed them. Calls follow the shape of the dose curve; as a rule, active = well fitted inhibition curve with a large enough effect; inconclusive = small, poorly fitted or top-dose-only effect; inactive = flat fitted curve, though single readings scatter.
Outcomes you can answer with include only these: active, inactive

Input: Identify the outcome logged in this assay for the compound shown: `CCOC(=O)c1ccc(N)cc1`
Output: inactive

Input: Identify the outcome logged in this assay for the compound shown: `CC(=O)NC(=O)c1ccccc1O`
Output: inactive

Input: Identify the outcome logged in this assay for the compound shown: `CCCCCCCC/C=C\CCCCCCCCN`
Output: inactive

Input: Identify the outcome logged in this assay for the compound shown: `Oc1ccccc1C=NCc1ccccc1`
Output: inactive

Input: Identify the outcome logged in this assay for the compound shown: CCc1ccc(C(=O)C(C)CN2CCCCC2)cc1 (configuration not stated)
Output: inactive

Input: Identify the outcome logged in this assay for the compound shown: `CC(C)(C)NC[C@H](O)COc1nsnc1N1CCOCC1`
Output: active

Input: Identify the outcome logged in this assay for the compound shown: `CCN(CC)CCOc1ccc2c(c1)C(=O)c1cc(OCCN(CC)CC)ccc1-2`
Output: active

Input: Identify the outcome logged in this assay for the compound shown: Cc1ccccc1OCC(O)CO (configuration not stated)
Output: inactive

Input: Identify the outcome logged in this assay for the compound shown: `CC(C)Cc1ccc(CC(=O)O)cc1`
Output: inactive

Input: Identify the outcome logged in this assay for the compound shown: `Cc1cccc(C)c1NC(=O)CN1CCCC1`
Output: inactive

Input: Identify the outcome logged in this assay for the compound shown: CC(=O)Nc1ccc(OCC(O)CNC(C)C)cc1 (configuration not stated)
Output: inactive

Input: Identify the outcome logged in this assay for the compound shown: `CC(=O)O[C@H]1C[C@@H]2CC[C@@H]3[C@H](CC[C@@]4(C)[C@H]3C[C@H]([N+]3(C)CCCCC3)[C@@H]4OC(C)=O)[C@@]2(C)C[C@@H]1N1CCCCC1`
Output: inactive

---

Assay: qHTS of pediatric cancer cell lines to identify multiple opportunities for drug repurposing: Primary screen for NB-EBc1 cells (AID 1347095)
Details: NB-EBc1 neuroblastoma viability, CellTiter-Glo luminescence, 48 h; series mostly up to 46 µM
Method: Drug repurposing or repositioning has been offered as a strategy for drug development in oncology programs. This approach has special potential for childhood cancers and other rare or orphan diseases, where the expected return on new drug development has been a disincentive to pharmaceuticals. […] We employed a titration-based paradigm (quantitative high-throughput screening or qHTS), where all compounds were tested at multiple concentrations for their effect on cell viability. […]
Inconclusive results are not listed. Activity calls are given as the source filed them. Calls follow the shape of the dose curve; as a rule, active = well fitted cell-killing curve with a large enough effect; inconclusive = small, poorly fitted or top-dose-only effect; inactive = no such curve, though single readings can be large or run the other way.
Outcomes you can answer with include only these: y (active), n (inactive)

Input: Identify the outcome logged in this assay for the molecule shown: `CCCCCCCC/C=C\CCCCCCCCN`
Output: n

Input: Identify the outcome logged in this assay for the molecule shown: `NC(=S)N/N=C/c1cccnc1`
Output: n

Input: Identify the outcome logged in this assay for the molecule shown: `Cc1cc(-c2ccccc2)nnc1NCCN1CCOCC1`
Output: n

Input: Identify the outcome logged in this assay for the molecule shown: `CO[C@H]1C=CO[C@@]2(C)Oc3c(C)c(O)c4c(O)c(c(/C=N/N5CCN(C)CC5)c(O)c4c3C2=O)NC(=O)/C(C)=C\C=C[C@H](C)[C@H](O)[C@@H](C)[C@@H](O)[C@@H](C)[C@H](OC(C)=O)[C@@H]1C`
Output: n

Input: Identify the outcome logged in this assay for the molecule shown: `CCOC(=O)[C@@](C)(N)Cc1ccc(O)c(O)c1`
Output: n

Input: Identify the outcome logged in this assay for the molecule shown: `COc1cc(C)nc(-n2nc(C)cc2OC)n1`
Output: n

Input: Identify the outcome logged in this assay for the molecule shown: `CCOC(=O)c1c(N)sc2c1CCN(Cc1ccccc1)C2`
Output: n

Input: Identify the outcome logged in this assay for the molecule shown: `CCCc1ncc(C[n+]2ccccc2C)c(N)n1`
Output: n

Input: Identify the outcome logged in this assay for the molecule shown: CC[N+](C)(CC)CCOC(=O)C(O)(c1ccccc1)C1CCCCC1 (configuration not stated)
Output: n

Input: Identify the outcome logged in this assay for the molecule shown: `Cc1cccc(C)c1NC(=O)CN1CCCC1`
Output: n

Input: Identify the outcome logged in this assay for the molecule shown: `CCCCCCCCCCCCOCCOCCOCCOCCOCCOCCOCCOCCOCCO`
Output: y

Input: Identify the outcome logged in this assay for the molecule shown: `COc1ccccc1N1CCN(CCCCNC(=O)c2ccc(-c3ccc(C(C)=O)cc3)cc2)CC1`
Output: n

Input: Identify the outcome logged in this assay for the molecule shown: `CCN(CC)CCNC(=O)COc1ccc(OC)cc1`
Output: n

Input: Identify the outcome logged in this assay for the molecule shown: `O=C1C(O)=C(O)C(=O)C(O)=C1O`
Output: n

Input: Identify the outcome logged in this assay for the molecule shown: `CC(=C(CCOC(=O)C(C)C)SSC(CCOC(=O)C(C)C)=C(C)N(C=O)Cc1cnc(C)nc1N)N(C=O)Cc1cnc(C)nc1N`
Output: n

Input: Identify the outcome logged in this assay for the molecule shown: `CC(C)[C@@H]1CC[C@@H](C)CC1=O`
Output: n

Input: Identify the outcome logged in this assay for the molecule shown: Cc1cc(C)cc(OCC2CNC(=O)O2)c1 (configuration not stated)
Output: n

Input: Identify the outcome logged in this assay for the molecule shown: `CCCCc1cc2ccccc2c(OCCN(C)C)n1`
Output: n

Input: Identify the outcome logged in this assay for the molecule shown: `C=C1c2cccc(O)c2C(O)=C2C(=O)[C@]3(O)C(O)=C(C(N)=O)C(=O)[C@@H](N(C)C)[C@@H]3[C@@H](O)[C@H]12`
Output: n

Input: Identify the outcome logged in this assay for the molecule shown: `Cc1cccc(C)c1NC(=O)CN1CCCCCC1`
Output: n

Input: Identify the outcome logged in this assay for the molecule shown: `N[C@H](C(=O)O)[C@@H](O)c1ccc(O)c(O)c1`
Output: n

Input: Identify the outcome logged in this assay for the molecule shown: `O=[N+]([O-])c1cccc(S(=O)(=O)NCCNS(=O)(=O)c2cccc([N+](=O)[O-])c2)c1`
Output: n

---

biological target: Calcium and integrin-binding protein 1 (Homo sapiens) (UniProt Q99828); assay: Primary qHTS for Identification of Calcium Integrin Binding Protein 1 (CIB1) Competitor (AID 1508620); settings: CIB1-GST / FITC-alphaIIb peptide fluorescence polarization; series mostly up to 114 µM;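 also: GST tagged CIB1 binding a fluorescein labelled alphaIIb integrin peptide tracer; top concentration of the series differs between compounds; % is scaled to controls: 0 for no effect and ±100 for the full control effect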
Sequence (Q99828 whole entry, looked up): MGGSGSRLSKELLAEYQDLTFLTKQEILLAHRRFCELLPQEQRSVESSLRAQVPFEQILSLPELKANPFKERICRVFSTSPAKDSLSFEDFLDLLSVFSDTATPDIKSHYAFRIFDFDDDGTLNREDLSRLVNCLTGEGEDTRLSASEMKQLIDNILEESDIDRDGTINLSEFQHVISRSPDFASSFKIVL
Results filed as inconclusive are left out. The source made the active and inactive calls. Calls come from the whole dose curve; as a rule, active = well fitted inhibition curve with a large enough effect; inconclusive = small, poorly fitted or top-dose-only effect; inactive = flat fitted curve, though single readings scatter.
readout_label: activity change, negative = inhibition

// below: answered compounds
compound=CCCCN1C[C@H](O)[C@@H](O)[C@H](O)[C@H]1CO target="Calcium and integrin-binding protein 1 (Homo sapiens) (UniProt Q99828)" test_value=inactive
compound="CC(C(=O)O)c1cccc(Oc2ccccc2)c1 (stereo unspecified)" target="Calcium and integrin-binding protein 1 (Homo sapiens) (UniProt Q99828)" test_value=inactive
compound=C#C[C@]1(O)CC[C@H]2[C@@H]3CCC4=CC(=O)CC[C@@H]4[C@H]3CC[C@@]21CC target="Calcium and integrin-binding protein 1 (Homo sapiens) (UniProt Q99828)" test_value=inactive
compound=COc1cc(O)c(C(=O)c2ccccc2)cc1S(=O)(=O)O target="Calcium and integrin-binding protein 1 (Homo sapiens) (UniProt Q99828)" test_value=inactive
compound="CCN[C@@H]1C[C@H](N)[C@@H](OC2OC(CN)=CCC2N)[C@H](O)[C@H]1O[C@H]1OC[C@](C)(O)[C@H](NC)[C@H]1O (stereo partly specified)" target="Calcium and integrin-binding protein 1 (Homo sapiens) (UniProt Q99828)" test_value="1.28% [at 1.07 µM] (inactive)"

Input: Entry `CCCN(CCc1cccs1)[C@H]1CCc2c(O)cccc2C1` has what activity change, negative = inhibition?
Output: inactive

Input: Entry `CCN(CC)CCNc1ccc(CO)c2sc3ccccc3c(=O)c12` has what activity change, negative = inhibition?
Output: inactive
